Molecular target: human placenta aldose reductase (Homo sapiens, UniProt P15121)
Construct: The aldose reductase enzyme standard was prepared from human placenta
Experiment: Aldose reductase of human origin inhibitory activity
Conditions: d1-glyceraldehyde 3 mM; pH 6.2; 25° C.; read-out: IC50 HPAR (human placenta aldose reductase; head prints HPAP)
Method: That is, human placenta stored at -80° C. was homogenized in distilled water followed by centrifugation at 10,000 XG for 15 minutes. […] The dialysate was applied to DEAE-cellulose column. The fraction containing aldose reductase activity eluted by salt concentration gradient was dialyzed and used as aldose reductase enzyme standard. […]
quantityMeasured: pIC50
Please treat pIC50 as minus the base-10 logarithm of the molar concentration.

Let me know recorded pIC50 for O=C(O)CC1Sc2c(F)cccc2N(Cc2nc3c(Cl)c(Cl)ccc3s2)C1=O (centres unmarked) , thanks.
7.89

Give the value of pIC50 reported for the following: O=C(O)CC1Sc2ccccc2N(Cc2nc3c(F)c(F)cc(F)c3s2)C1=O (centres unmarked)
8.00

Using the record for Cc1ccc2c(c1)N(Cc1nc3c(F)c(F)cc(F)c3s1)C(=O)C(CC(=O)O)S2 (centres unmarked) , state its measured pIC50.
7.92

Using known records, supply pIC50 for O=C(O)CC1Sc2ccccc2N(Cc2nc3c(F)c(F)ccc3s2)C1=O (centres unmarked)
8.03

Supply measured pIC50 of O=C(O)CC1Sc2cc(F)ccc2N(Cc2nc3c(F)c(F)cc(F)c3s2)C1=O (centres unmarked) in your reply.
7.85
